Measured inhibition by item
assay: Inhibition of tubulin polymerization at 20 uM relative to control
Quick note: give the figure in %, leave out the unit.

SMILES_DATA	MEAS_VALUE
COC(=O)NNC(=O)/C(=C/c1ccc(OC)cc1)c1cc(OC)c(OC)c(OC)c1	26
COC(=O)NNC(=O)/C(=C/c1ccc2ccccc2c1)c1cc(OC)c(OC)c(OC)c1	97
COc1cc(-c2c(-c3ccc4ccccc4c3)[nH][nH]c2=O)cc(OC)c1OC	98
COc1ccc(/C=C\c2cc(OC)c(OC)c(OC)c2)cc1O	89

## Task Data request, read-out inhibition, for `COc1ccc(-c2[nH][nH]c(=O)c2-c2cc(OC)c(OC)c(OC)c2)cc1`
## Result 100

## Task Queued: `COC(=O)n1[nH]c(=O)c(-c2cc(OC)c(OC)c(OC)c2)c1-c1cccc2ccccc12`
## Result 7

## Task Entry `COc1ccc(-c2c(-c3cc(OC)c(OC)cc3OC)[nH][nH]c2=O)cc1OC` please
## Result 0

## Task How about `COc1ccc(-c2c(-c3cc(OC)c(OC)c(OC)c3)[nH][nH]c2=O)cc1OC` ?
## Result 4

## Task Repeat with `COC(=O)n1[nH]c(=O)c(-c2cc(OC)c(OC)c(OC)c2)c1-c1ccc(OC)cc1`
## Result 0

----------
system: MIA PaCa-2; test: Cytotoxicity against human MIAPaCa2 cells after 72 hrs by MTT assay; type: functional, cell-based; settings: MIA PaCa-2, 72 h
PARAMETER_MEASURED: IC50 (nM)
State the answer as a number, implicitly in nM.

## Task So what does the record say about IC50 for `COc1ccc(/C=C\c2cc(OC)c(OC)c(OC)c2)cc1O` ?
## Result 7.2

## Task Then what about the compound `COc1ccc(-c2[nH][nH]c(=O)c2-c2cc(OC)c(OC)c(OC)c2)cc1O` ?
## Result 462

## Task Could you do the same for `COC(=O)NNC(=O)/C(=C/c1ccc2ccccc2c1)c1cc(OC)c(OC)c(OC)c1` , please?
## Result 127

## Task What about this compound? `COc1ccc(-c2[nH][nH]c(=O)c2-c2cc(OC)c(OC)c(OC)c2)cc1`
## Result 575

## Task Then what about the compound `COc1ccc(-c2[nH][nH]c(=O)c2-c2cc(OC)c(OC)c(OC)c2)cc1F` ?
## Result 556

----------
// reported inhibition for each item listed
experiment: Inhibition of tubulin polymerization at 20 uM relative to control
The reply should contain only the number, in %.

SMILES_DATA	READING_UNIT	inhibition
COC(=O)n1[nH]c(=O)c(-c2cc(OC)c(OC)c(OC)c2)c1-c1cccc(F)c1	%	1
COC(=O)NNC(=O)/C(=C/c1cccc(F)c1)c1cc(OC)c(OC)c(OC)c1	%	10

Query compound follows.
## Task Given `COC(=O)n1[nH]c(=O)c(-c2cc(OC)c(OC)c(OC)c2)c1-c1ccc(OC)c(OC(C)=O)c1` , state its recorded inhibition.
## Result 0

----------
assay: Inhibition of tubulin polymerization at 20 uM relative to control
PARAMETER_MEASURED: inhibition (%)
Report as a plain number; the unit % is understood.

Some solved cases for reference:
SMILES_DATA	PARAMETER_MEASURED	MEAS_VALUE
COc1cc(-c2c(-c3cccc(F)c3)[nH][nH]c2=O)cc(OC)c1OC	inhibition	0
COC(=O)NNC(=O)/C(=C/c1ccc(OC)c(OC(C)=O)c1)c1cc(OC)c(OC)c(OC)c1	inhibition	25

## Task Which inhibition value is on record for `COC(=O)NNC(=O)/C(=C/c1ccc(OC)c(F)c1)c1cc(OC)c(OC)c(OC)c1` ?
## Result 66

## Task Moving on to the next compound: `COC(=O)n1[nH]c(=O)c(-c2cc(OC)c(OC)c(OC)c2)c1-c1ccc2ccccc2c1`
## Result 3

## Task Try `COC(=O)n1[nH]c(=O)c(-c2cc(OC)c(OC)c(OC)c2)c1-c1ccc(OC)c(F)c1` next.
## Result 9

## Task Proceed to `COC(=O)NNC(=O)/C(=C/c1ccc(OC)c(OC)c1)c1cc(OC)c(OC)c(OC)c1`
## Result 0

## Task Similarly, `COc1ccc(-c2[nH][nH]c(=O)c2-c2cc(OC)c(OC)c(OC)c2)cc1O` ?
## Result 99

## Task Query `COc1ccc(-c2[nH][nH]c(=O)c2-c2cc(OC)c(OC)c(OC)c2)cc1F` next
## Result 100

## Task Next up: `COC(=O)n1[nH]c(=O)c(-c2ccc(OC)c(OC)c2)c1-c1cc(OC)c(OC)cc1OC`
## Result 2

## Task And the next one, `COC(=O)n1[nH]c(=O)c(-c2ccc(OC)c(OC)c2)c1-c1cc(OC)c(OC)c(OC)c1` ?
## Result 0

## Task Param item: `COC(=O)NNC(=O)/C(=C/c1cc(OC)c(OC)c(OC)c1)c1ccc(OC)c(OC)c1`
## Result 0

## Task Next record, please: `COC(=O)n1[nH]c(=O)c(-c2cc(OC)c(OC)c(OC)c2)c1-c1ccc(OC)c(OC)c1`
## Result 3

## Task Here is the next compound: `COc1cc(-c2c(-c3cccc4ccccc34)[nH][nH]c2=O)cc(OC)c1OC`
## Result 0

## Task Record: `COc1ccc(-c2[nH][nH]c(=O)c2-c2cc(OC)c(OC)c(OC)c2)cc1OC`
## Result 31

## Task Ok, now `COC(=O)NNC(=O)/C(=C/c1cccc2ccccc12)c1cc(OC)c(OC)c(OC)c1`
## Result 55

## Task What do we get for `COC(=O)NNC(=O)/C(=C/c1cc(OC)c(OC)cc1OC)c1ccc(OC)c(OC)c1` ?
## Result 0

Where these numbers come from: ChEMBL document CHEMBL1156206
